biological target: IGF-1R Ba/F3 (Homo sapiens, UniProt P08069); construct: fused on or other part: TEL- (or BCR-) IGF-1R in Ba/F3: the kinase part holds the site; test: Ba/F3 Cell Viability Inhibition Assay (IGF-1R Ba/F3); settings: Tel-TK transformed Ba/F3 cells, 48 hours, Britelite luminescence
Sequence (P08069 999-1274 limits assumed): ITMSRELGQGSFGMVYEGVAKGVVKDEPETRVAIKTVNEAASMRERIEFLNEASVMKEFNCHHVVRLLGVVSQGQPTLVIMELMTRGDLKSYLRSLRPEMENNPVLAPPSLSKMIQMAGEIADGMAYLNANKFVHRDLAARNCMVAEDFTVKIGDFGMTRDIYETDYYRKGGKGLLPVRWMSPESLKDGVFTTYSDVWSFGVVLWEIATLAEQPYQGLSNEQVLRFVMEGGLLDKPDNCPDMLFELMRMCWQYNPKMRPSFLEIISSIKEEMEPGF
assay.metric: IC50
Record the result as number plus unit.

Worked cases, answers included:
Which value of IC50 has been reported for Cc1cc(Nc2nc(Nc3cc(C)c(C4CCN(C(C)C(N)=O)CC4)cc3C)ncc2Cl)n[nH]1 (stereo not drawn) in the records?
9 nM

Quick one: IC50 for Cc1cc(Nc2ncc(Cl)c(NC3CCCCNC3=O)n2)c(F)cc1C1CCN(C)CC1 (stereo not drawn) ?
87 nM

Item CCc1cc(Nc2nc(Nc3cc(C)c(C4CCN(C5CS(=O)(=O)C5)CC4)cc3F)ncc2Cl)n[nH]1 has what recorded IC50?
21 nM

Report IC50 for Cc1cc(Nc2nc(Nc3cc(C)c(C4CCN(CCS(N)(=O)=O)CC4)cc3F)ncc2Cl)n[nH]1 please.
38 nM

Can you look up the measured IC50 of Cc1cc(Nc2nc(Nc3cc(C)c(C4CCN(C5COC5)CC4)cc3F)ncc2Cl)n[nH]1 for me?
15 nM

***
Tell me the measured IC50 of Cc1cc(Nc2nc(Nc3cc(C)c(C4CCNC(=O)C4)cc3C)ncc2Cl)n[nH]1 (stereo not drawn) , please.
9 nM

I'd like to know its IC50. The molecule in question is COc1cc(Nc2ncc(Cl)c(Nc3cc(C)[nH]n3)n2)c(C)cc1C1CCN(C(=O)CN(C)C)CC1
9 nM

Value lookup for IC50; key = Cc1cc(Nc2nc(Nc3cc(C)c(C4CCN(C5CCNC5)CC4)cc3F)ncc2Cl)n[nH]1 (stereo not drawn)
101 nM

IC50 for Cc1cc(Nc2nc(Nc3cc(C)c(C4CCN(C(=O)N(C)C)CC4)cc3C)ncc2Cl)n[nH]1 ?
6 nM

Using the record for CCNC(C)(C)C(=O)N1CCC(c2cc(C)c(Nc3ncc(Cl)c(Nc4cc(C)[nH]n4)n3)cc2C)CC1 , report its IC50.
5 nM

Any idea what its IC50 is? The molecule is Cc1cc(Nc2nc(Nc3cc(C)c(C4CCN(C5CCC6(CC5)OCCO6)CC4)cc3F)ncc2Cl)n[nH]1
16 nM

Please report the recorded IC50 for Cc1cc(Nc2nc(Nc3cc(C)c(C4CCCCN4CC(N)=O)cc3C)ncc2Cl)n[nH]1 (stereo not drawn) .
24 nM

Looking for the measured IC50 of Cc1cc(Nc2nc(Nc3cc(C)c(C4CCN(C(=O)C5CCNCC5)CC4)cc3F)ncc2Cl)n[nH]1 , can you help?
1570 nM

So what's the measured IC50 for this one? Cc1cc(Nc2nc(Nc3cc(C)c(C4CCN(Cc5c(C)noc5C)CC4)cc3C)ncc2Cl)n[nH]1
11 nM

Need IC50, item Cc1cc(Nc2nc(Nc3cc(C)c(C4CCN(C(=O)[C@H]5CCCN5C(C)C)CC4)cc3F)ncc2Cl)n[nH]1
48 nM

I'd like to know its IC50. The molecule in question is Cc1cc(Nc2nc(Nc3cc(C)c(C4CCN(C(=O)C5CCCC(=O)N5)CC4)cc3F)ncc2Cl)n[nH]1 (stereo not drawn)
282 nM

Reported IC50, molecule Cc1cc(Nc2nc(Nc3cc(C)c(C4CCN(Cc5cnccn5)CC4)cc3F)ncc2Cl)n[nH]1 : ____
36 nM

What value of measured IC50 is listed for Cc1cc(Nc2nc(Nc3cc(C)c(C4CCN(Cc5cnccn5)CC4)cc3C)ncc2Cl)n[nH]1 ?
10 nM

----------
biological target: IGF-1R Ba/F3 (Homo sapiens, UniProt P08069); construct: fused on or other part: TEL- (or BCR-) IGF-1R in Ba/F3: the kinase part holds the site; assay: Ba/F3 Cell Viability Inhibition Assay (IGF-1R Ba/F3); conditions: Tel-TK transformed Ba/F3 cells, 48 hours, Britelite luminescence
Quick rule for you: IC50 under 60 nM gets Y, anything else gets N.

Strictly below 60 nM: is that where IC50 of Cc1cc(Nc2nc(Nc3cc(C)c(C4CCN(CCCS(=O)(=O)N5CCOCC5)CC4)cc3F)ncc2Cl)n[nH]1 sits?
N

***
For Cc1cc(Nc2nc(Nc3cc(C)c(C4CCN(C5CCN(S(C)(=O)=O)CC5)CC4)cc3F)ncc2Cl)n[nH]1 , is the recorded IC50 below the cut-off of 60 nM?
Y

For this compound, is IC50 lower than 60 nM? CNC(=O)CN1CCC(c2cc(C)c(Nc3ncc(Cl)c(Nc4cc(C)[nH]n4)n3)cc2OC)CC1
Y

Determine if Cc1cc(Nc2nc(Nc3cc(C)c(C4CCN(C(C)C)CC4)cc3C)ncc2Cl)n[nH]1 shows IC50 strictly lower than 60 nM.
Y

Input Cc1cc(Nc2nc(Nc3cc(C)c(C4CCN(C(=O)CN5C(C)CCCC5C)CC4)cc3C)ncc2Cl)n[nH]1 (stereo not drawn) ; condition: IC50 strictly below 60 nM. Does it hold?
Y

Here's an entry: Cc1cc(Nc2nc(Nc3cc(C)c(C4CCN(C(=O)CN5C(C)(C)CCCC5(C)C)CC4)cc3C)ncc2Cl)n[nH]1 . Is its IC50 below 60 nM?
Y

For Cc1cc(Nc2nc(Nc3cc(C)c(C4CCN(C)CC4)cc3F)ncc2Cl)n[nH]1 , is the recorded IC50 below the cut-off of 60 nM?
Y

Input Cc1cc(Nc2nc(Nc3cc(C(F)(F)F)c(C4CCN(C)CC4)cc3F)ncc2Cl)n[nH]1 ; condition: IC50 strictly below 60 nM. Does it hold?
Y

Given CCNC1(C(=O)N2CCC(c3cc(F)c(Nc4ncc(Cl)c(Nc5cc(C)[nH]n5)n4)cc3C)CC2)CCC1 , is recorded IC50 strictly lower than 60 nM?
N

----------
molecular target: IGF-1R Ba/F3 (Homo sapiens); construct: fused on or other part: TEL- (or BCR-) IGF-1R in Ba/F3: the kinase part holds the site; assay: Ba/F3 Cell Viability Inhibition Assay (IGF-1R Ba/F3); details: Tel-TK transformed Ba/F3 cells, 48 hours, Britelite luminescence
Attribute: IC50
Expressed in nM, but write only the number.

Some solved entries appear below for comparison.
Reported IC50 for Cc1cc(Nc2nc(Nc3cc(C)c(C4CCN(CCC(N)=O)CC4)cc3C)ncc2Cl)n[nH]1 : what is it?
59

May I ask what IC50 has been recorded for Cc1cc(Nc2nc(Nc3cc(C)c(C4CCN(CC(F)(F)F)CC4)cc3F)ncc2Cl)n[nH]1 ?
142

IC50 lookup needed for Cc1cc(Nc2nc(Nc3cc(C)c([C@H]4CCN[C@@H](C)C4)cc3F)ncc2Cl)n[nH]1 (relative stereo) , thanks.
163

Sample Cc1cc(Nc2nc(Nc3cc(C)c(C4CCCCN4C)cc3C)ncc2Cl)n[nH]1 (stereo not drawn) — what was its IC50?
19

Could you share which IC50 value was measured for Cc1cc(Nc2nc(Nc3cc(Cl)c(C4CCN(CCS(=O)(=O)N5CCC5)CC4)cc3C)ncc2Cl)n[nH]1 ?
11

***
GET /values?readout=IC50&item= Cc1cc(Nc2nc(Nc3cc(C)c(C4CCNCC4)cc3C)ncc2Cl)n[nH]1
44

Given CCS(=O)(=O)CCN1CCC(c2cc(F)c(Nc3ncc(Cl)c(Nc4cc(C)[nH]n4)n3)cc2C)CC1 , state its recorded IC50.
21

Bench note: what IC50 did Cc1cc(Nc2nc(Nc3cc(C)c(C4CCN(C(=O)C5CCN(C)CC5)CC4)cc3F)ncc2Cl)n[nH]1 show?
81

Fill blank: measured IC50 of the compound Cc1cc(Nc2nc(Nc3cc(C)c(C4CCN(C(=O)N(C)C)CC4)cc3F)ncc2Cl)n[nH]1 is ____.
11

Recorded IC50 of Cc1cc(Nc2nc(Nc3cc(C)c(C4CCN(S(=O)(=O)CCCN5CC[C@@H](O)C5)CC4)cc3C)ncc2Cl)n[nH]1 , please.
73

Consider the compound Cc1cc(Nc2nc(Nc3cc(C)c(C4CCN(C(=O)c5nc(C(C)C)no5)CC4)cc3C)ncc2Cl)n[nH]1 and give its measured IC50.
18

Item Cc1cc(Nc2nc(Nc3cc(C)c(C4CCN(Cc5cccnc5)CC4)cc3C)ncc2Cl)n[nH]1 has what recorded IC50?
6
